test-settings: buffer; pH 7.4; 200.0 µM
# binarize solubility kinetic: threshold 30 µg/mL inclusive, high side t, low side f

Below are worked cases with known answers.
compound: O=C(NCc1cccc(Cl)c1)c1cc(=O)[nH]c2ccccc12
label-value: f

compound: Cn1c(-c2cccs2)[n+](C)c2ccccc21.[Cl-]
label-value: t

compound: Cc1cc(C)c2nc(C)cc(Nc3ccc(C(=O)NCCO)cc3)c2c1
label-value: t

compound: Cc1cccc(NC(=S)NCc2ccc(F)cc2)c1C
label-value: t

compound: Cc1ccc(NC(=O)C2COc3ccccc3O2)c(C)c1 (configuration not stated)
label-value: t

As a next step, examine the compound that follows.
*Q* Entry N#Cc1ccc(C(=O)NC2CCCCCCC2)cc1 : is its solubility kinetic no less than 30 µg/mL?
*A* t

====

test-settings: buffer; pH 7.4; 200.0 µM
measured-endpoint: log10 solubility kinetic (log10 of the value in µg/mL)
Scale: log10; quantity: solubility kinetic; unit before log: µg/mL

compound: N#Cc1c2n(c3c(N)ncnc13)CCCCC2
measured-endpoint: log10 solubility kinetic
numeric-value: 1.53

*Q* # query: log10 solubility kinetic of entry C=CCNc1nc(NCc2ccccc2)nc(OCC)n1
*A* 1.56

*Q* # query: log10 solubility kinetic of entry Cc1cc(=O)oc2cc(OCC(=O)N3CCN(Cc4ccccc4)CC3)ccc12
*A* 1.75

*Q* # query: log10 solubility kinetic of entry CCN(C(=O)COc1ncnc2sccc12)c1ccccc1
*A* 1.63

*Q* # query: log10 solubility kinetic of entry CCOC(=O)c1c(C)oc2cc(Cl)c(O)c(CN(C)C)c12
*A* 1.64

*Q* # query: log10 solubility kinetic of entry CN(C)C(=S)Nc1nc2ccccc2s1
*A* 0.73

*Q* # query: log10 solubility kinetic of entry O=C(COc1ccccc1Br)Nc1ccc2c(c1)OCCCO2
*A* 0.20

*Q* # query: log10 solubility kinetic of entry C=CCn1c(O)c(/C=C2\C=Nc3ccccc32)c(=O)[nH]c1=O
*A* 0.60

*Q* # query: log10 solubility kinetic of entry O=C(Cc1ccccc1)Nc1ccc(NC(=O)c2ccco2)cc1Cl
*A* 0.38

*Q* # query: log10 solubility kinetic of entry CC(C)OCCCNC(=O)Cc1ccc(Br)cc1
*A* 1.62

*Q* # query: log10 solubility kinetic of entry CN(C)CCCN=C(NO)c1ccc(Cl)cc1Cl
*A* 1.61

*Q* # query: log10 solubility kinetic of entry COc1ccccc1OCCn1c(=S)[nH]c2ccccc21
*A* 0.15

*Q* # query: log10 solubility kinetic of entry COc1cc(NC(=O)CCN2CC(C)OC(C)C2)cc(OC)c1 (centres undefined)
*A* 1.54

*Q* # query: log10 solubility kinetic of entry O=C(COC(=O)c1cccnc1Cl)c1ccc(OC(F)F)cc1
*A* 1.71

*Q* # query: log10 solubility kinetic of entry CC(=O)Nc1ccc(-c2csc(Nc3ncccn3)n2)cc1
*A* -0.40

====

test-settings: buffer; pH 7.4; 200.0 µM
measured-endpoint: log10 solubility kinetic (log10 of the value in µg/mL)
Scale: log10; quantity: solubility kinetic; unit before log: µg/mL

Worked cases, answers included:
molecule: CC(C(=O)Nc1ccc(C(F)(F)F)cc1)N(C)CC(=O)N1CCN(Cc2ccccc2)CC1.O=C(O)C(=O)O (centres undefined)
numeric-value: 1.72
--
molecule: CCOc1ccc(N(CC(=O)N2CCCCCC2)S(=O)(=O)c2ccc(C)cc2)cc1
numeric-value: 1.37
--
molecule: CC(C)c1ccc(NC(=O)COC(=O)CC2CCCC2)cc1
numeric-value: 0.89
--
molecule: COc1cc2cc(-c3ccc(OC)c(OC)c3C)nc(N)c2cc1OC
numeric-value: 1.67
--
molecule: Cc1cc(C)nc(SCC(=O)Nc2ccnc3ccccc23)n1
numeric-value: 0.82

*Q* # query: log10 solubility kinetic of entry Cc1cc(C(=O)Nc2ccccc2N2CCOCC2)no1
*A* 1.28

*Q* # query: log10 solubility kinetic of entry Cc1cccc(S(=O)(=O)Nc2ccc3c(c2)OCCO3)c1
*A* 1.46

*Q* # query: log10 solubility kinetic of entry O=C(COc1ccccc1/C=C1\SC(=S)NC1=O)Nc1ccc(F)cc1
*A* 0.48

*Q* # query: log10 solubility kinetic of entry CCc1ccc(C(C)NC(=O)c2ccc3c(c2)OCO3)cc1 (centres undefined)
*A* 0.20

*Q* # query: log10 solubility kinetic of entry O=C(COC(=O)c1ccc([N+](=O)[O-])cc1)Nc1ccccc1C(=O)NC1CC1
*A* 0.93

*Q* # query: log10 solubility kinetic of entry Cc1ccc(NC(=O)C(c2ccccc2)c2ccccc2)c(O)c1
*A* 0.32

*Q* # query: log10 solubility kinetic of entry CCOc1ccccc1N=Cc1c(O)n(C)c(=O)n(C)c1=O
*A* 0.04

====

test-settings: buffer; pH 7.4; 200.0 µM
measured-endpoint: solubility kinetic

compound: CCC(OC(=O)CN1C(=O)c2ccccc2C1=O)C(=O)NC1CCCC1 (configuration not stated)
measured-endpoint: solubility kinetic
result: 52.1 µg/mL
--
compound: Cc1ccc(NC(=O)C2C3CCC(O3)C2C(=O)O)cc1C (configuration not stated)
measured-endpoint: solubility kinetic
result: > 43.4 µg/mL
--
compound: CC(C)(C)C1CCc2onc(C(=O)O)c2C1 (configuration not stated)
measured-endpoint: solubility kinetic
result: > 33.5 µg/mL

*Q* # query: solubility kinetic of entry COC(=O)c1ccc(OCC(=O)NCCC2=CCCCC2)c(OC)c1
*A* > 52.1 µg/mL

====

Parameter: solubility kinetic. Scope: all listed entries.
test-settings: buffer; pH 7.4; 200.0 µM

Worked cases, answers included:
molecule: COc1ccc(C(=O)C2CCCN(C(=O)C3=CCCC3)C2)c(C)c1 (stereo unspecified)
solubility kinetic: > 49.1 µg/mL

molecule: CCNC(=O)C12CCC(C)(C(=O)O1)C2(C)C (stereo unspecified)
solubility kinetic: 31.8 µg/mL

molecule: Cc1ccc(S(=O)(=O)Nc2ccc(Oc3cccnc3)nc2)cc1
solubility kinetic: 16.8 µg/mL

molecule: O=c1cc(-c2ccccc2)c2cc(Cl)ccc2[nH]1
solubility kinetic: < 0.5 µg/mL

molecule: CC(NC(=O)CN1CCOCC1)c1ccccc1 (stereo unspecified)
solubility kinetic: > 37.2 µg/mL

Moving on to another molecule below.
*Q* # query: solubility kinetic of entry O=[N+]([O-])c1ccc(NC(=S)N2CCc3ccccc32)cc1
*A* 3.9 µg/mL

====

test-settings: buffer; pH 7.4; 200.0 µM
measured-endpoint: solubility kinetic

Worked cases, answers included:
compound: Nc1cc(S(=O)(=O)c2ccc(O)c(N)c2)ccc1O
solubility kinetic: > 42 µg/mL

compound: Nc1nc(Nc2ccccc2)nc(N2CCCC2)c1[N+](=O)[O-]
solubility kinetic: 27.6 µg/mL

compound: CC(NC(=O)c1ccncc1)c1ccc(Br)cc1 (stereo unspecified)
solubility kinetic: > 45.8 µg/mL

compound: CC(C)CC(=O)N1CCN(C(=O)c2ccc(F)cc2)CC1
solubility kinetic: > 43.9 µg/mL

compound: Cc1cc(C)c(C#N)c(N2CCN(c3ccccc3)CC2)n1
solubility kinetic: 3.8 µg/mL

Moving on to another compound below.
*Q* # query: solubility kinetic of entry Cc1cc(-n2c(C)cc(C(=O)CN3C(=O)C(=O)N(C)C3=O)c2C)no1
*A* > 51.6 µg/mL

====

test-settings: buffer; pH 7.4; 200.0 µM
measured-endpoint: solubility kinetic

Worked cases, answers included:
molecule: CS(=O)(=O)c1ccc(Cl)c(NC(=O)CCN2C(=O)NC3(CCCC3)C2=O)c1
solubility kinetic: > 62.1 µg/mL

molecule: COc1cc2c(cc1OC)/C(=C/C(=O)c1ccc(C)cc1)NCC2
solubility kinetic: 24.8 µg/mL

molecule: COc1ccc(S(=O)(=O)Nc2cc(C)on2)cc1
solubility kinetic: 36.1 µg/mL

molecule: CN(Cc1ccco1)C(=O)CCc1nc2sc3c(c2c(=O)[nH]1)CCCC3
solubility kinetic: 22.4 µg/mL

molecule: Cc1cc(=O)[nH]c2ccc(S(=O)(=O)NCc3ccccc3)cc12
solubility kinetic: 2.5 µg/mL

molecule: Cc1ccc2[nH]c3c(c2c1)CCCC3NCCO.Cl (centres undefined)
solubility kinetic: > 42.1 µg/mL

molecule: Cc1cccnc1NC(=O)c1ccc2c(c1)NC(=O)C(C)S2 (centres undefined)
solubility kinetic: > 47 µg/mL

molecule: N#CC1=C(N)OC2=C(C(=O)CCC2)C1c1ccc2c(c1)OCO2 (centres undefined)
solubility kinetic: 16.5 µg/mL

molecule: COC(=O)Cc1ccc(Oc2ncc(C(F)(F)F)cc2Cl)cc1
solubility kinetic: 8.5 µg/mL

molecule: O=C(COc1cc(Cl)ccc1Cl)N1CCNC1=O
solubility kinetic: > 43.4 µg/mL

*Q* # query: solubility kinetic of entry Cc1cc(NC(=O)COC(=O)C2CCC(=O)N2)c([N+](=O)[O-])cc1C (centres undefined)
*A* > 50.3 µg/mL

*Q* # query: solubility kinetic of entry CCCC1NC(C(=O)O)Cc2c1[nH]c1ccccc21 (centres undefined)
*A* 37.3 µg/mL

*Q* # query: solubility kinetic of entry CC(Sc1nccn1C)C(=O)Nc1ccccc1 (centres undefined)
*A* > 39.2 µg/mL

*Q* # query: solubility kinetic of entry COc1cc(C(=O)Nc2ccccc2C(=O)Nc2ccccn2)cc(OC)c1OC
*A* 4.6 µg/mL

*Q* # query: solubility kinetic of entry Cc1ccc(Oc2c(C)nc(-c3ccccc3)[nH]c2=O)cc1
*A* 1 µg/mL

*Q* # query: solubility kinetic of entry CN(C)CC/C=C1/c2ccccc2CS(=O)(=O)c2ccccc21
*A* 47.6 µg/mL

*Q* # query: solubility kinetic of entry CN(CC(=O)N1CCOCC1)S(=O)(=O)c1ccc2ccccc2c1
*A* > 52.3 µg/mL

*Q* # query: solubility kinetic of entry Cn1cc(CCC(=O)NCc2cccc(Cl)c2)c2ccccc21
*A* 9.9 µg/mL

*Q* # query: solubility kinetic of entry Cc1ncc([N+](=O)[O-])n1CC(=O)Nc1ccc(Br)cc1
*A* 9.9 µg/mL

*Q* # query: solubility kinetic of entry NC(=O)COc1ccccc1C(=O)NC12CC3CC(CC(C3)C1)C2
*A* 14.2 µg/mL

*Q* # query: solubility kinetic of entry CN(C)c1cccc(C(=O)OCC(=O)N2CCc3ccccc3C2)c1
*A* 27.9 µg/mL

*Q* # query: solubility kinetic of entry O=C(CSCc1ccccc1)Nc1ccccc1
*A* > 38.6 µg/mL

*Q* # query: solubility kinetic of entry CC1CC(=O)Nc2ccccc2N1S(=O)(=O)c1ccc(C#N)cc1 (centres undefined)
*A* 2.7 µg/mL

*Q* # query: solubility kinetic of entry COc1cccc(NC(=O)c2cc(-c3ccco3)nc3ccccc23)c1
*A* < 0.4 µg/mL
